# system tested: T1, 4H3015-AA
# T1 chain: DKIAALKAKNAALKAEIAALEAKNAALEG
# assay overview: two-hybrid library CCmax;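 further: natural log of median RNA to DNA barcode read ratio; higher means stronger binding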
# applied conditions: mean of both orientations
interaction score values by entry
Answer as a number with no unit attached.

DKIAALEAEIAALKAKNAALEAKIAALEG [4H2165-AA]
-1.54
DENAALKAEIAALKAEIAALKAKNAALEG [4H1615-AA]
-1.68
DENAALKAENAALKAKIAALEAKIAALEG [4H1765-AA]
-1.7

--- query ---
# binder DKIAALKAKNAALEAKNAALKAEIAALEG [4H3001-AA] ; its interaction score = -1.86
